System: AGS (G12D)
run description: Cell proliferation assay (CellTiter-Glo, 72 hours), AGS
Type: cell-based
measurement conditions: 72 h, 384-well, CellTiter-Glo 2.0
observation type: IC50 (nM)
One number for each entry, in nM.

# annotated cases, reported IC50 shown
C#Cc1c(F)ccc2cc(O)cc(-c3nc4c5c(nc(OC[C@@]67CCCN6C[C@H](F)C7)nc5c3F)N3CC(F)CC[C@H]3CO4)c12 (stereo partly drawn) [Example 105]: 81
C#Cc1c(F)ccc2cc(O)cc(-c3nc4c5c(nc(OC[C@@]67CCCN6C[C@H](F)C7)nc5c3F)N3CCCC[C@H]3CO4)c12 [compound 1]: 6.9
C#Cc1c(F)ccc2cc(O)cc(-c3cc4c5c(nc(OC[C@@]67CCCN6C[C@H](F)C7)nc5c3F)N3CCCC[C@H]3CO4)c12 [Example 45]: 621

The record that follows has no IC50 shown yet.
State, for AGS (G12D), measured IC50 of the compound listed here: CCc1c(F)ccc2cc(O)cc(-c3nc4c5c(nc(OC[C@@]67CCCN6C[C@H](F)C7)nc5c3F)N3CCCC(O)C3CO4)c12 (stereo partly drawn) [Example 119]
258

---

System: AGS (G12D)
run description: Cell proliferation assay (CellTiter-Glo, 72 hours), AGS
Assay type: cell-based
measurement conditions: 72 h, 384-well, CellTiter-Glo 2.0
observation type: log10(IC50) (log10 of the value in nM)
Units before log transform: nM; reported quantity: IC50; transform: log10.

# annotated cases, reported log10(IC50) shown
CCc1c(F)ccc2cc(O)cc(-c3nc4c5c(nc(OC[C@@]67CCCN6C[C@H](F)C7)nc5c3F)N3CCC[C@@](C)(O)[C@H]3CO4)c12: 1.76
C#Cc1c(F)ccc2cc(O)cc(-c3nc4c5c(nc(OC[C@@]67CCCN6C[C@H](F)C7)nc5c3F)N(Cc3ccccc3)[C@@H](C)CO4)c12: 3.17
C#Cc1c(F)ccc2cc(O)cc(-c3nc4c5c(nc(OC[C@@]67CCCN6C[C@H](F)C7)nc5c3F)N3C[C@@H](O)CC[C@H]3CO4)c12: 1.45
C#Cc1c(F)ccc2cc(O)cc(-c3nc4c5c(nc(OC[C@@]67CCCN6C/C(=C\F)C7)nc5c3F)N3CCCC[C@H]3CO4)c12: 0.89
C#Cc1c(F)ccc2cc(O)cc(-c3nc4c5c(nc(OC[C@@]67CCCN6C[C@H](F)C7)nc5c3F)N3CCC[C@@](C)(O)[C@H]3CO4)c12: 2.05

The record that follows has no log10(IC50) shown yet.
Indicate the recorded log10(IC50) value for this molecule: C#Cc1c(F)ccc2cc(O)cc(-c3nc4c5c(nc(OC[C@@]67CCCN6C[C@H](F)C7)nc5c3F)N(C)[C@@H](CC)CO4)c12
1.92

---

System: AGS (G12D)
run description: Cell proliferation assay (CellTiter-Glo, 72 hours), AGS
Assay type: cell-based
measurement conditions: 72 h, 384-well, CellTiter-Glo 2.0
pIC50: −log10 of the molar value.
observation type: pIC50

C#Cc1c(F)ccc2cc(O)cc(-c3nc4c5c(nc(OC[C@@]67CCCN6C[C@H](F)C7)nc5c3F)N3CCC[C@](C)(O)[C@@H]3CO4)c12: < 5.52
C#Cc1c(F)ccc2cc(O)cc(-c3nc4c5c(nc(OC[C@@]67CCCN6C[C@H](F)C7)nc5c3F)N3C=CCC[C@H]3CO4)c12: 5.95
Cc1cc(N)nc(-c2nc3c4c(nc(OC[C@@]56CCCN5C[C@H](F)C6)nc4c2F)N2CCCC[C@H]2CO3)c1C(F)(F)F: < 5.52
C#Cc1c(F)ccc2cc(O)cc(-c3nc4c5c(nc(OC[C@@]67CCCN6C[C@H](F)C7)nc5c3F)N3C[C@H](C#N)CC[C@H]3CO4)c12: < 5.52
CCc1c(F)ccc2cc(O)cc(-c3nc4c5c(nc(OC[C@@]67CCCN6C[C@H](F)C7)nc5c3F)N(C)C3(CCOC3)CO4)c12 (stereo partly drawn): < 5.52
C#Cc1c(F)ccc2cc(O)cc(-c3nc4c5c(nc(OC[C@@]67CCCN6C[C@H](F)C7)nc5c3F)N[C@@H](C3CCCO3)CO4)c12 (stereo partly drawn): < 5.52
C#Cc1c(F)ccc2cc(O)cc(-c3nc4c5c(nc(OC[C@@]67CCCN6C[C@H](F)C7)nc5c3F)N(C(C)C)[C@@H](C)CO4)c12: 8.29
C#Cc1c(F)ccc2cc(O)cc(-c3nc4c5c(nc(OC[C@@]67CCCN6C[C@H](F)C7)nc5c3F)NCCC4)c12: 5.26
C#Cc1c(F)ccc2cc(O)cc(-c3nc4c5c(nc(OC[C@@]67CCCN6C[C@H](F)C7)nc5c3F)N[C@H]3CCC[C@H]3O4)c12: < 5.52
C#Cc1c(F)ccc2cc(O)cc(-c3nc4c5c(nc(OC[C@@]67CCCN6C[C@H](F)C7)nc5c3F)N(Cc3ccccc3)[C@H](CO)CO4)c12: < 5.52

The following compounds each have a reported value; give each one's pIC50.
1. C#Cc1c(F)ccc2cc(O)cc(-c3nc4c5c(nc(OC[C@@]67CCCN6C[C@H](F)C7)nc5c3F)N(C)[C@@H](C(C)C)CO4)c12
2. CCc1c(F)ccc2cc(O)cc(-c3nc4c5c(nc(OC[C@@]67CCCN6C[C@H](F)C7)nc5c3F)N3CCCC[C@H]3C(C)O4)c12 (stereo partly drawn)

1. < 5.52
2. 5.79

---

System: AGS (G12D)
run description: Cell proliferation assay (CellTiter-Glo, 72 hours), AGS
Type: cell-based
measurement conditions: 72 h, 384-well, CellTiter-Glo 2.0
I'd be grateful if you could share measured log10 IC50 for these entries.
Units before log transform: nM; reported quantity: IC50; transform: log10.

# annotated cases, reported log10 IC50 shown
N#Cc1c(N)sc2c(F)ccc(-c3nc4c5c(nc(OC[C@@]67CCCN6C[C@H](F)C7)nc5c3F)N3CCCC[C@H]3CO4)c12 [Example 85]: 2.80
C#Cc1c(F)ccc2cc(O)cc(-c3nc4c5c(nc(OC[C@@]67CCCN6C[C@H](F)C7)nc5c3F)N(C[C@@H](C)O)[C@@H](C)CO4)c12 [Example 130]: 2.29
CCc1c(F)ccc2cc(O)cc(-c3nc4c5c(nc(OC[C@@]67CCCN6C[C@H](F)C7)nc5c3F)N3CCCC[C@H]3CO4)c12 [compound 2]: 1.72

The following compounds each have a reported value; give each one's log10 IC50.
1. CCc1c(F)ccc2cc(O)cc(-c3nc4c5c(nc(OC[C@@]67CCCN6C[C@H](F)C7)nc5c3F)N(C)[C@@H](C)CO4)c12 [Example 123]
2. CCc1c(F)ccc2cc(O)cc(-c3nc4c5c(nc(OC[C@@]67CCCN6C[C@H](F)C7)nc5c3F)N(CC(F)F)[C@@H](C)CO4)c12 [Example 131]
3. C#Cc1c(F)ccc2cc(O)cc(-c3nc4c5c(nc(OC[C@@]67CCCN6C[C@H](F)C7)nc5c3F)N3[C@@H](COC[C@@H]3C)CO4)c12 [Example 59]
4. C#Cc1c(F)ccc2cc(O)cc(-c3nc4c5c(nc(OC[C@@]67CCCN6C[C@H](F)C7)nc5c3F)N3C[C@H](O)CC[C@H]3CO4)c12 [Example 29]
5. C#Cc1c(F)ccc2cc(O)cc(-c3nc4c5c(nc(OC[C@@]67CCCN6C[C@H](F)C7)nc5c3F)N3CCOC[C@H]3CO4)c12 [Example 58]

1. 2.57
2. 1.81
3. 1.85
4. 2.88
5. 1.77

---

Tested on: AGS (G12D)
run description: Cell proliferation assay (CellTiter-Glo, 72 hours), AGS
Format: cell-based
measurement conditions: 72 h, 384-well, CellTiter-Glo 2.0
Please respond with Fulfilled when measured IC50 is strictly beneath 700 nM, and with Not fulfilled in all other cases.

C#Cc1c(F)ccc2cc(O)cc(-c3nc4c5c(nc(OC[C@@]67CCCN6C[C@@H](O)C7)nc5c3F)N3CCCC[C@H]3CO4)c12: Not fulfilled

Consider the molecule C#Cc1c(F)ccc2cc(O)cc(-c3nc4c5c(nc(OC[C@@]67CCCN6C[C@H](F)C7)nc5c3F)N(Cc3ccccc3)[C@@H](CO)CO4)c12 . Is its IC50 strictly less than 700 nM?
Not fulfilled

Consider the molecule C#Cc1c(F)ccc2cc(F)cc(-c3nc4c5c(nc(OC[C@@]67CCCN6C[C@H](F)C7)nc5c3F)N3CCCC[C@H]3CO4)c12 . Is its IC50 strictly less than 700 nM?
Not fulfilled

Consider the molecule C#Cc1c(F)ccc2cc(O)cc(-c3nc4c5c(nc(OC[C@@]67CCCN6C[C@H](F)C7)nc5c3F)N(C)C3(CC3)CO4)c12 . Is its IC50 strictly less than 700 nM?
Fulfilled

Consider the molecule CCc1c(F)ccc2cc(O)cc(-c3nc4c5c(nc(OC[C@@]67CCCN6C/C(=C\F)C7)nc5c3F)N3CCCC[C@H]3CO4)c12 . Is its IC50 strictly less than 700 nM?
Fulfilled

Consider the molecule C#Cc1c(F)ccc2cc(O)cc(-c3nc4c5c(nc(OC[C@@]67CCCN6C[C@H](F)C7)nc5c3F)N(CC(F)(F)F)[C@@H](C)CO4)c12 . Is its IC50 strictly less than 700 nM?
Fulfilled

Consider the molecule C#Cc1c(F)ccc2cc(O)cc(-c3nc4c5c(nc(OC[C@@]67CCCN6C[C@H](F)C7)nc5c3F)NCCO4)c12 . Is its IC50 strictly less than 700 nM?
Not fulfilled
